Examples of binders with documented pSTAT3 (nM) follow.
Biological target: T1, IL-23 receptor on the surface of HEK-Blue IL-23 cells (UniProt Q5VWK5 24-629, limits assumed)
T1 sequence (looked up): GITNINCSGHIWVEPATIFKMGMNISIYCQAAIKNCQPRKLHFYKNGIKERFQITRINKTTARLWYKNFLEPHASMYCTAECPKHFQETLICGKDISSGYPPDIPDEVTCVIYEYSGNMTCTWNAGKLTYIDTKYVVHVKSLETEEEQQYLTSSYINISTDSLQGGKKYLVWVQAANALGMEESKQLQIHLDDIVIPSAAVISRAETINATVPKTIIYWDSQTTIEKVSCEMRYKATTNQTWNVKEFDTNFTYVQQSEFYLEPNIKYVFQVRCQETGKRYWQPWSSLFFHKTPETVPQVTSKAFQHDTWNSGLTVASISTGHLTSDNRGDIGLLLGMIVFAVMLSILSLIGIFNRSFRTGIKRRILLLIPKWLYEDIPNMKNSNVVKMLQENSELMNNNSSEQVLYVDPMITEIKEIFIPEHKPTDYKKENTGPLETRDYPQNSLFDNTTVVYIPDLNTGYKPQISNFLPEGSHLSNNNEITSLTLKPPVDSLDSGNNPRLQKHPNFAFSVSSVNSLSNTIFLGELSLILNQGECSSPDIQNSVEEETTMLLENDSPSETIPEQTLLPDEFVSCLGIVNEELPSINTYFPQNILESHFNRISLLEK
Assay: cell-based or functional assay
Starred links: 1 amine or outer side, 2 acyl side, 3 side chain; linkers in the order of their positions; H or OH if unused. Positions of bridges follow the written chain, without caps; N, C: chain ends. Non-standard residues stand in square brackets, D forms with d. No end group written: not given here. Yde = (2S)-2-amino-3-[4-[2-(dimethylamino)ethoxy]phenyl]propanoic acid, CN(C)CCOc1ccc(C[C@H](N[*:1])C(=O)[*:2])cc1; NdmK = (2S)-6-amino-2-(dimethylamino)hexanoic acid, CN(C)[C@@H](CCCCN[*:3])C(=O)[*:2]; Nmha = 6-(methylamino)hexanoic acid, CN(CCCCCC(=O)[*:2])[*:1]; Trp(7-Me) = Cc1cccc2c(C[C@H](N)C(=O)O)c[nH]c12; αMeLys(Me2) = CN(C)CCCC[C@](C)(N)C(=O)O; 2Nal = N[C@@H](Cc1ccc2ccccc2c1)C(=O)O; εLys = N[C@@H](CCCCN[*:1])C(=O)[*:2]; NMe5Ava = CN(CCCCC(=O)[*:2])[*:1]; 3Pal = N[C@@H](Cc1cccnc1)C(=O)O; Dad = desamino-aspartamic acid; αMeL = CC(C)C[C@](C)(N)C(=O)O; Thp = NC1(C(=O)O)CCOCC1; Aib = CC(C)(N)C(=O)O; Ava = NCCCCC(=O)O; βAla = NCCC(=O)O; Sar = CNCC(=O)O

{"columns": ["binder", "pSTAT3 (nM)"],
 "data": [
  ["XCNTWQCXXXDNG (not fully specified; Ahx(§1)-C(@2)-N-T-W-Q-C(@2)-Yae-Nal-Aib-D(§1)-N-G-NH2) [Compound of SEQ ID NO: 9]", 65],
  ["[NMe5Ava]C[NdmK][Trp(7-Me)]K(Ac)C[Yde][2Nal][αMeLys(Me2)]EN[3Pal][Sar]-NH2 (lactam N-10; disulfide 2-6) [Compound of SEQ ID NO: 61]", 4.4],
  ["[Ava]CNT[Trp(7-Me)]K(Ac)C[Yde][2Nal][Aib]ENH[βAla]-NH2 (lactam N-11; disulfide 2-7; SMILES CC(=O)NCCCC[C@@H]1NC(=O)[C@H](Cc2c[nH]c3c(C)cccc23)NC(=O)[C@H]([C@@H](C)O)NC(=O)[C@H](CC(N)=O)NC(=O)[C@@H]2CSSC[C@H](NC1=O)C(=O)N[C@@H](Cc1ccc(OCCN(C)C)cc1)C(=O)N[C@@H](Cc1ccc3ccccc3c1)C(=O)NC(C)(C)C(=O)N[C@H](C(=O)N[C@@H](CC(N)=O)C(=O)N[C@@H](Cc1c[nH]cn1)C(=O)NCCC(N)=O)CCC(=O)NCCCCC(=O)N2) [Compound of SEQ ID NO: 48]", 0.6],
  ["[Ava]C[εLys](Ac)WQC[Yde][2Nal][αMeL]ENN-NH2 (lactam N-10; disulfide 2-6; also: Cys2 carboxyl bonded to Lys3 epsilon-NH2 (isopeptide), Lys3 alpha-N acetylated) [Compound of SEQ ID NO: 28]", 4.11],
  ["[Nmha]CNTWQC[Yde][2Nal][αMeL]DN[dL]-NH2 (lactam N-11; disulfide 2-7; SMILES CC(C)C[C@@H](NC(=O)[C@H](CC(N)=O)NC(=O)[C@@H]1CC(=O)N(C)CCCCCC(=O)N[C@H]2CSSC[C@H](NC(=O)[C@H](CCC(N)=O)NC(=O)[C@H](Cc3c[nH]c4ccccc34)NC(=O)[C@H]([C@@H](C)O)NC(=O)[C@H](CC(N)=O)NC2=O)C(=O)N[C@@H](Cc2ccc(OCCN(C)C)cc2)C(=O)N[C@@H](Cc2ccc3ccccc3c2)C(=O)N[C@@](C)(CC(C)C)C(=O)N1)C(N)=O) [Compound of SEQ ID NO: 40]", 50.8],
  ["[Ava]CNT[Trp(7-Me)]K(Ac)C[Yde][2Nal][αMeL]ENH[Sar]-NH2 (lactam N-11; disulfide 2-7; SMILES CC(=O)NCCCC[C@@H]1NC(=O)[C@H](Cc2c[nH]c3c(C)cccc23)NC(=O)[C@H]([C@@H](C)O)NC(=O)[C@H](CC(N)=O)NC(=O)[C@@H]2CSSC[C@H](NC1=O)C(=O)N[C@@H](Cc1ccc(OCCN(C)C)cc1)C(=O)N[C@@H](Cc1ccc3ccccc3c1)C(=O)N[C@@](C)(CC(C)C)C(=O)N[C@H](C(=O)N[C@@H](CC(N)=O)C(=O)N[C@@H](Cc1c[nH]cn1)C(=O)N(C)CC(N)=O)CCC(=O)NCCCCC(=O)N2) [Compound of SEQ ID NO: 47]", 0.57],
  ["[Ava]CNTWK(Ac)C[Yde][2Nal][αMeLys(Me2)]EN[3Pal][Sar]-NH2 (lactam N-11; disulfide 2-7; SMILES CC(=O)NCCCC[C@@H]1NC(=O)[C@H](Cc2c[nH]c3ccccc23)NC(=O)[C@H]([C@@H](C)O)NC(=O)[C@H](CC(N)=O)NC(=O)[C@@H]2CSSC[C@H](NC1=O)C(=O)N[C@@H](Cc1ccc(OCCN(C)C)cc1)C(=O)N[C@@H](Cc1ccc3ccccc3c1)C(=O)N[C@@](C)(CCCCN(C)C)C(=O)N[C@H](C(=O)N[C@@H](CC(N)=O)C(=O)N[C@@H](Cc1cccnc1)C(=O)N(C)CC(N)=O)CCC(=O)NCCCCC(=O)N2) [Compound of SEQ ID NO: 58]", 0.1],
  ["[Ava]CNT[Trp(7-Me)]K(Ac)C[Yde][2Nal][Thp]EN[3Pal]-NH2 (lactam N-11; disulfide 2-7; SMILES CC(=O)NCCCC[C@@H]1NC(=O)[C@H](Cc2c[nH]c3c(C)cccc23)NC(=O)[C@H]([C@@H](C)O)NC(=O)[C@H](CC(N)=O)NC(=O)[C@@H]2CSSC[C@H](NC1=O)C(=O)N[C@@H](Cc1ccc(OCCN(C)C)cc1)C(=O)N[C@@H](Cc1ccc3ccccc3c1)C(=O)NC1(CCOCC1)C(=O)N[C@H](C(=O)N[C@@H](CC(N)=O)C(=O)N[C@@H](Cc1cccnc1)C(N)=O)CCC(=O)NCCCCC(=O)N2) [Compound of SEQ ID NO: 51]", 0.05],
  ["[Dad]CNT[Trp(7-Me)]K(Ac)C[Yde][2Nal][αMeLys(Me2)]KN[3Pal][Sar]-NH2 (lactam (positions not given here); disulfide 2-7; not fully specified (bridges); printed as Dad(§1)-C(@2)-N-T-Wim-K[Ac]-C(@2)-Yde-Nal-MKdm-K(§1)-N-Pal-Sar-NH2) [Compound of SEQ ID NO: 151]", 0.06],
  ["XCNTWQCXXXENN (Apt(§1)-C(@2)-N-T-W-Q-C(@2)-Yae-Nal-Aib-E(§1)-N-N-NH2) [Compound of SEQ ID NO: 5]", 9.66]
]}
